# system-name: P2X4 receptor (Homo sapiens)
# experiment-description: Measurement of Ca2+ influx in transfected 1321N1 astrocytoma cells (P2X4 inhibitory potency)
# condition-context: agonist-mediated Ca2+ influx, FLUO-4, 1321N1 astrocytoma cells; antagonists added 30 min before agonist
quantity-name: IC50

Answered examples (2):
compound | IC50
Cc1nsc(-c2ccc(C)c(NCC(=O)N3CCc4c3ccnc4C(C)O)c2)n1 (stereo not drawn) [Example 92] | > 100 nM
Cc1ccc(-c2ccc(C)c(NCC(=O)N3CCc4c(CO)cccc43)c2)o1 [Example 28] | 0.1 to 19 nM

The recorded IC50 for Cc1nsc(-c2ccc(C)c(NCC(=O)c3cn4c5c(cccc35)C(=O)NCC4)c2)n1 [Example 99] is 20 to 39 nM

The recorded IC50 for O=C(CNc1cccc(-c2ccccn2)c1)c1c[nH]c2cc(F)c(F)cc12 [Example 122] is > 100 nM

The recorded IC50 for Cc1noc(-c2ccc(F)c(NCC(=O)N3CCc4c(C(O)C(F)(F)F)cccc43)c2)n1 (stereo not drawn) [Example 41] is 20 to 39 nM

The recorded IC50 for COc1ccc(-c2nc(C)ns2)cc1NCC(=O)c1c[nH]c2c3c(ccc12)CCC3 [Example 104] is 20 to 39 nM

The recorded IC50 for Cc1nsc(-c2ccc(C)c(NCC(=O)N3CCc4c3cccc4N3C(=O)C=CC3=O)c2)n1 [Example 79] is 0.1 to 19 nM

----------
# system-name: P2X4 receptor (Homo sapiens)
# Sequence (Q99571 1-388): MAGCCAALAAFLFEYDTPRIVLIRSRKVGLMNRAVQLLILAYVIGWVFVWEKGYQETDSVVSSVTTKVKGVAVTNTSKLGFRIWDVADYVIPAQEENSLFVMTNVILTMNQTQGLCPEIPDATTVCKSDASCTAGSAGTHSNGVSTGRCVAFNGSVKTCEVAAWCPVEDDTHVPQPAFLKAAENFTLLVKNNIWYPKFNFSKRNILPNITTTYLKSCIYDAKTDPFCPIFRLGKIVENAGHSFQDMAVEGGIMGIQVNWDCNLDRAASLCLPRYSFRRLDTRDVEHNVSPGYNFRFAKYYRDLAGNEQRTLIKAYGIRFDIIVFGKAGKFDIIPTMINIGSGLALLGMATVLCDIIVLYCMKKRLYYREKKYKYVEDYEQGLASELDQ
# experiment-description: Measurement of Ca2+ influx in transfected 1321N1 astrocytoma cells (P2X4 inhibitory potency)
# condition-context: agonist-mediated Ca2+ influx, FLUO-4, 1321N1 astrocytoma cells; antagonists added 30 min before agonist
Catalogue of molecules with associated IC50

Answered examples (2):
molecule | IC50
CCc1nsc(-c2ccc(C)c(NCC(=O)N3CCc4c(O)cccc43)c2)n1 | 0.1 to 19 nM
Cc1nsc(-c2ccc(C)c(NCC(=O)N3CCc4c(OCCCO)cccc43)c2)n1 | 0.1 to 19 nM

The recorded IC50 for Cc1noc(-c2ccc(C)c(NCC(=O)N3CCc4c3cccc4N3C(=O)CNC3=O)c2)n1 is 20 to 39 nM

The recorded IC50 for COc1cc2[nH]cc(C(=O)CNc3cc(-c4nc(C)ns4)cc(F)c3OC)c2cc1F is 20 to 39 nM

The recorded IC50 for COc1ccc(-c2cc(C)c(C)cn2)cc1NCC(=O)N1CCc2c(O)cccc21 is > 100 nM

The recorded IC50 for Cc1nsc(-c2ccc(C)c(NCC(=O)N3CCc4c3cccc4C(C)(C)OC(=O)C(O)CO)c2)n1 (centres unmarked) is 20 to 39 nM

The recorded IC50 for Cc1ccc(-c2nc(C3CC3)ns2)cc1NCC(=O)N1CCc2c(OCC(C)(C)O)cccc21 is 20 to 39 nM

The recorded IC50 for Cc1nsc(-c2ccc(C)c(NCC(=O)c3c[nH]c4ncccc34)c2)n1 is 20 to 39 nM

Data provenance is patent US20260209215A1.
